# measuredTarget: recombinant human serotonin receptor 5-HT2A (Homo sapiens, UniProt P28223)
# Construct: expressed in transfected cells; method B: loaded with Ca2+ dye
# Sequence (P28223 whole entry): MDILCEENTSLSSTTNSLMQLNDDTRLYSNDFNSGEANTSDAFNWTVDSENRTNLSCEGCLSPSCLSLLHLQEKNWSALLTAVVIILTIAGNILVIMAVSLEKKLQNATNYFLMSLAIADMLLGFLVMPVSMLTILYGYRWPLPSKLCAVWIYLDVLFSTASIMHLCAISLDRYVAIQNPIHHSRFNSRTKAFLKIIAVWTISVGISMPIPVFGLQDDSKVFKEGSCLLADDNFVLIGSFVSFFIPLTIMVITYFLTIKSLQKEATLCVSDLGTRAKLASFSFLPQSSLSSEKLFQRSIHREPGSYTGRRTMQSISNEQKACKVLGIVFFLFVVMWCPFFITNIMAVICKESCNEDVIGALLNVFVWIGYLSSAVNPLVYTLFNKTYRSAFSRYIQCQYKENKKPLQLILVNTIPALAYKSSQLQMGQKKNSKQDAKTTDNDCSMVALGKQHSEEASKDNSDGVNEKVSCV
# method: 5-HT2A antagonist Ca2+ assay in CHO-K1 cells (method A aequorin luminescence / method B FLIPR fluorescence)
# Assay type: cell-based
# conditionSet: antagonist mode vs EC80 of reference agonist, method A or B, read-out: 5HT2A IC50
Entries whose IC50 is below 40 nM take MET; entries at or above 40 nM take NOT MET.

                                   molecule  answerlabel
0  COc1cccc(O[C@@H]2CCN(CC(O)CO[C@@H]3CCc4ccccc43)C2)c1 (some centres unmarked) [Example 40]      NOT MET
1  N#Cc1ccc2c(c1)CCC2CN1CCC(Oc2ccc(F)cc2)CC1 (centres unmarked) [Example 121]      NOT MET
2  CC(CN1CCc2ccccc2C1=O)N1CC[C@@H](Oc2ccc(F)cc2)C1 (some centres unmarked) [Example 33]      NOT MET
3  COc1ccc2c(c1)[C@@H](CN1C[C@@H]3CC[C@H]1CN3c1ccccc1)CC2 (single isomer, unassigned) [Compound 311]          MET
4  O[C@H](CO[C@@H]1CCCc2ccccc21)CN1CC[C@@H](Oc2ccc(F)cc2)C1 [Example 52]      NOT MET
5  Fc1ccc(OC2CCN(CCC3CCc4ccncc43)CC2)cc1 (centres unmarked) [Example 174]          MET
6  Fc1ccc(OC2CCN(CCC3COc4cccnc43)CC2)cc1 (centres unmarked) [Example 177]          MET

###

# measuredTarget: recombinant human serotonin receptor 5-HT2A (Homo sapiens, UniProt P28223)
# Construct: expressed in transfected cells; method B: loaded with Ca2+ dye
# method: 5-HT2A antagonist Ca2+ assay in CHO-K1 cells (method A aequorin luminescence / method B FLIPR fluorescence)
# Assay type: cell-based
# conditionSet: antagonist mode vs EC80 of reference agonist, method A or B, read-out: 5HT2A IC50
pIC50: −log10 of the molar value.
Measured pIC50 of individual entries
observedProperty: pIC50

>>> print(df.to_string())
                                   compound                            measuredtarget  observedproperty  relationaloperator  testresult
0  COc1cccc(OC2CCN(CC3CCOc4ccccc43)CC2)c1 (centres unmarked)  recombinant human serotonin receptor 5-HT2A (Homo sapiens, UniProt P28223)             pIC50                   =        6.07
1  C[C@@H]1C[C@]2(CCc3ccccc3O2)CCN1CCN1CCc2ccccc2C1=O  recombinant human serotonin receptor 5-HT2A (Homo sapiens, UniProt P28223)             pIC50                   =        5.55
2  COc1ccc2c(c1)C(CN1CCC(OCc3cccnc3)CC1)CC2 (centres unmarked)  recombinant human serotonin receptor 5-HT2A (Homo sapiens, UniProt P28223)             pIC50                   =        6.01
3  Fc1ccc(OC2CCN(CCC3COCc4ccccc43)CC2)cc1 (centres unmarked)  recombinant human serotonin receptor 5-HT2A (Homo sapiens, UniProt P28223)             pIC50                   =        7.10
4  COc1ccc2c(c1)C(CN1C[C@H]3CC[C@@H]1CN3c1ccccc1)CC2 (single isomer, unassigned) [Compound 313]  recombinant human serotonin receptor 5-HT2A (Homo sapiens, UniProt P28223)             pIC50                   <        5.00
